Data credit: PubChem BioAssay AID248

System: L1210 leukemia ip in BDF1 mice, survival T/C
experimental.details: NCI In Vivo Anticancer Drug Screen. Data for tumor model L1210 Leukemia (intraperitoneal) in B6D2F1 (BDF1) mice
experimental.context: endpoint: mean survival time; dose: 100.0 mg/kg/injection; schedule: Q01DX001 (ip); vehicle: carboxymethylcellulose (CMC)
Inconclusive results and toxic doses are left out. Rule as the data show it: active = T/C of 150% or more; inactive = T/C below 125%.
Possible outcomes: YES = active, NO = inactive

{"compound": "CCSC1OC(COS(C)(=O)=O)C(OS(C)(=O)=O)C1NC(C)=O (stereo unspecified)", "classification": "NO"}
{"compound": "O=C(O)C(O)C1CCCCC1 (stereo unspecified)", "classification": "NO"}
{"compound": "COc1ccccc1/C=C(/C)C(C)=O", "classification": "NO"}
{"compound": "O=[N+]([O-])c1ccc2c(c1)/C(=N\\O)c1cc(Cl)c(Cl)cc1-2", "classification": "NO"}
{"compound": "CC(=O)c1ccc(NC(=O)C(F)(F)F)cc1", "classification": "NO"}
{"compound": "CN(C)N1C(=O)CC2(CCC(C(C)(C)C)CC2)CC1=O", "classification": "NO"}
{"compound": "Cc1ccc2ccc(/C=N/Nc3ccc4cccc(O)c4n3)c(O)c2n1", "classification": "NO"}
{"compound": "COc1ccc(Oc2cc(OC)ccc2Oc2ccccc2)cc1", "classification": "NO"}
{"compound": "Nc1ccc2c(c1)C(=O)c1c(F)ccc(F)c1-2", "classification": "NO"}
{"compound": "COc1ccc(C2C(c3ccccc3)C=CC(c3ccccc3)C2[N+](=O)[O-])cc1OC (stereo unspecified)", "classification": "NO"}
{"compound": "CCCCCCCCCCCCCCCCCC1=Nc2ccccc2NC(=O)C1", "classification": "NO"}
{"compound": "CC(C)Cn1cnc2c(=S)nc(N)[nH]c21", "classification": "YES"}
{"compound": "Nc1c(Cl)ncnc1NC1CCC(CO)C1 (stereo unspecified)", "classification": "NO"}
{"compound": "CC1(C)N=C(c2ccccc2)C2C(c3ccc([N+](=O)[O-])cc3)N21 (stereo unspecified)", "classification": "NO"}
{"compound": "O=C(Nc1ccc(C(=O)Nc2cccc(C3=NCCN3)c2)cc1)Nc1ccc(C(=O)Nc2cccc(C3=NCCN3)c2)cc1", "classification": "NO"}
{"compound": "CC(=O)Nc1cccc(OCCCOc2ccc([N+](=O)[O-])cc2)c1", "classification": "NO"}
{"compound": "OCC1CCC(n2cnc3c(=S)nc[nH]c32)C1 (stereo unspecified)", "classification": "NO"}
{"compound": "COC1OCC(OCc2ccccc2)C(OCc2ccccc2)C1OCc1ccccc1 (stereo unspecified)", "classification": "NO"}
{"compound": "Cc1ccc(S(=O)(=O)C2CCCCC2)cc1", "classification": "NO"}
{"compound": "O=C(Nc1ccc(F)cc1)Oc1ccc2ccccc2c1", "classification": "NO"}
{"compound": "S=c1nc[nH]c2c1ncn2C1CCCCO1 (stereo unspecified)", "classification": "NO"}

###

System: L1210 leukemia ip in BDF1 mice, survival T/C
experimental.details: NCI In Vivo Anticancer Drug Screen. Data for tumor model L1210 Leukemia (intraperitoneal) in B6D2F1 (BDF1) mice
experimental.context: endpoint: mean survival time; dose: 200.0 mg/kg/injection; schedule: Q04DX003 (ip); vehicle: Klucel (hydroxypropylcellulose) (HPC); higher = longer survival
Inconclusive results and toxic doses are left out.

{"molecule": "CNc1ccc(S(=O)(=O)O)cc1", "T/C": "102 % of control"}
{"molecule": "COC(C)(OC)C(N)=O", "T/C": "96 % of control"}
{"molecule": "O=CNC(c1ccccc1)(c1ccccc1)c1ccccc1", "T/C": "94 % of control"}
{"molecule": "CCC(Cl)COP(=O)(OCC(Cl)CC)OC(CC)P(=O)(OCC(Cl)CC)OCC(Cl)CC (stereo unspecified)", "T/C": "93 % of control"}
{"molecule": "Cc1cccc(C)c1NC(=O)NCc1ccco1", "T/C": "100 % of control"}
{"molecule": "COC(=O)C(C)Oc1ccc([N+](=O)[O-])c(O)c1[N+](=O)[O-] (stereo unspecified)", "T/C": "91 % of control"}
{"molecule": "CCCCCCCCCCCCCCCC(C)(C)O", "T/C": "96 % of control"}
{"molecule": "Nc1ccc(S(N)(=O)=O)cc1", "T/C": "95 % of control"}
{"molecule": "CCOc1ccc(NC(=O)Nc2ccccc2OC)cc1", "T/C": "92 % of control"}
{"molecule": "OC1(c2ccncc2)CCc2ccccc21 (stereo unspecified)", "T/C": "101 % of control"}
{"molecule": "CCN(CC)S(=O)(=O)/C=C\\c1ccccc1", "T/C": "102 % of control"}
{"molecule": "CC(C)c1ccc(C(c2c(O)c3ccccc3oc2=O)c2c(O)c3ccccc3oc2=O)cc1", "T/C": "100 % of control"}
{"molecule": "Cc1ccc(NC(=O)c2ccccc2C(=O)O)cc1Cl", "T/C": "93 % of control"}
{"molecule": "CCC1(O)C(=O)OCc2c1cc(C)[nH]c2=O (stereo unspecified)", "T/C": "86 % of control"}
{"molecule": "N#CC1CNC(=S)N=C1c1ccccc1 (stereo unspecified)", "T/C": "95 % of control"}
{"molecule": "Cc1c(NC(=O)CCl)c(=O)n(-c2ccccc2)n1C", "T/C": "96 % of control"}
{"molecule": "c1ccc(COc2ccccn2)cc1", "T/C": "98 % of control"}
{"molecule": "COc1cc2ccc3c(c2cc1OC)C(=O)CNC3C (stereo unspecified)", "T/C": "106 % of control"}
{"molecule": "CCOC(=O)C(C(=O)OCC)C1c2ccccc2C(=NO)c2ccccc21 (stereo unspecified)", "T/C": "92 % of control"}
{"molecule": "CCCCCCCCCCCCCCCOc1c(Cl)c(Cl)c(Cl)c(Cl)c1Cl", "T/C": "90 % of control"}
{"molecule": "COc1ccc(C(=O)NC(=S)Nc2cccc(C)c2C)cc1", "T/C": "89 % of control"}
{"molecule": "COc1ccc(C(=O)NC(=S)Nc2ccccc2F)cc1", "T/C": "93 % of control"}
{"molecule": "O=c1ccn(CCC(COCc2ccccc2)COCc2ccccc2)c(=O)[nH]1", "T/C": "101 % of control"}
{"molecule": "O=C1NC(=O)C2(CCc3ccccc32)N1 (stereo unspecified)", "T/C": "100 % of control"}
{"molecule": "Brc1ccc(C=C2c3ccccc3-c3ccccc32)cc1", "T/C": "97 % of control"}
{"molecule": "O=C(O)CCC(NC(=O)OCc1ccccc1)C(=O)OCc1ccccc1 (stereo unspecified)", "T/C": "105 % of control"}
{"molecule": "Cc1ccc(-c2cc3ccccc3[nH]2)cc1", "T/C": "90 % of control"}
{"molecule": "Clc1ccccc1C(N=Cc1ccc[nH]1)(c1ccccc1)c1ccccc1", "T/C": "93 % of control"}
{"molecule": "Cc1ccc(S(=O)(=O)NCCCCC(N)C(=O)O)cc1 (stereo unspecified)", "T/C": "108 % of control"}
{"molecule": "c1ccc(-c2cc(-c3ccccc3)on2)cc1", "T/C": "98 % of control"}
{"molecule": "O=[N+]([O-])c1cc(Br)cc2c1nc(NCCCO)c1ccccc12", "T/C": "109 % of control"}
{"molecule": "O=c1oc(-c2ccccc2)ccc1-c1ccccc1", "T/C": "100 % of control"}
{"molecule": "CCOC(=O)c1ccc(NS(C)(=O)=O)cc1", "T/C": "102 % of control"}
{"molecule": "O=C1NC(=O)C2(CCN(CC3COc4ccccc4O3)CC2)C(=O)N1 (stereo unspecified)", "T/C": "103 % of control"}
{"molecule": "Cc1[nH]c(N)nc(=S)c1CCC(=O)O", "T/C": "93 % of control"}
{"molecule": "CN(Nc1c([N+](=O)[O-])cc([N+](=O)[O-])cc1[N+](=O)[O-])c1cccc2ccccc12", "T/C": "98 % of control"}
{"molecule": "COC(=O)c1ccc(OC(=S)N(C)C)cc1", "T/C": "98 % of control"}
{"molecule": "CC(=O)OCC1OC(S[As](C)C)C(OC(C)=O)C(OC(C)=O)C1OC(C)=O (stereo unspecified)", "T/C": "100 % of control"}
{"molecule": "C=C(CCCCC)C(=O)/C=C/c1ccc(Cl)cc1", "T/C": "100 % of control"}
{"molecule": "CN(C)c1ccc(/C=C2/CCCCC2=O)cc1", "T/C": "103 % of control"}
{"molecule": "O=C(N/N=C/c1ccc2c(c1)CCC2)c1ccc(S(=O)(=O)O)cc1", "T/C": "104 % of control"}
{"molecule": "Cc1ccc2c(ccc3ccccc32)n1", "T/C": "90 % of control"}
{"molecule": "COc1ccc(C=O)cc1Br", "T/C": "97 % of control"}
{"molecule": "COc1cc(C2N(c3ccccc3)CCN2c2ccccc2)cc(OC)c1OC", "T/C": "93 % of control"}
{"molecule": "CCCCN(CCCC)/C(=C/C(=O)OC)C(=O)OC", "T/C": "100 % of control"}
{"molecule": "CC(C)(C)c1ccc(SSc2ccc(C(C)(C)C)cc2)cc1", "T/C": "91 % of control"}
{"molecule": "Cc1noc(/N=C(/C(=N/c2onc(C)c2C)c2ccccc2)c2ccccc2)c1C", "T/C": "103 % of control"}
{"molecule": "Nc1c(Cl)ncnc1NCCCCCO", "T/C": "94 % of control"}
{"molecule": "O=[N+]([O-])c1cccc(N=P(c2ccccc2)(c2ccccc2)c2ccccc2)c1", "T/C": "95 % of control"}
{"molecule": "CC(=O)CCCC1C(=O)N(c2ccccc2)N(c2ccccc2)C1=O", "T/C": "101 % of control"}
{"molecule": "CCOC(=O)c1c[nH]c(=O)n(-c2ccccc2)c1=O", "T/C": "92 % of control"}
